# Lookup of reported pIC50 keyed by entry
Target: human MER (528-end) (Homo sapiens)
Construct: human MER (528-end); purchased Camnabio, Japan
Sequence (Q12866 528-999 limits assumed): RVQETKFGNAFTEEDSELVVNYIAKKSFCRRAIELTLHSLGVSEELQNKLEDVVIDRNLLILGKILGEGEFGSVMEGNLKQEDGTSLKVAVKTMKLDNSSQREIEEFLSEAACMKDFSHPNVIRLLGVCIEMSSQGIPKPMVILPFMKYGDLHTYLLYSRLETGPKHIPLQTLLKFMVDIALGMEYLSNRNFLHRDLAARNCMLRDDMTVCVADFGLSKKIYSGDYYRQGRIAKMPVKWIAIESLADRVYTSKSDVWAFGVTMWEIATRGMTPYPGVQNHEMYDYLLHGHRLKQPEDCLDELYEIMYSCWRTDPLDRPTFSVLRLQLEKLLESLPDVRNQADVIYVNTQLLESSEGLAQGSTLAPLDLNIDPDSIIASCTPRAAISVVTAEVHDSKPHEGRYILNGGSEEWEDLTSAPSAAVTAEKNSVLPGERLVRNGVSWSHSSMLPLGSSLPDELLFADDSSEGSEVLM
Assay: HTRF kinase activity biochemical assay, MER
Settings: 10 μM ATP, 30 minutes pre-incubation; read-out: HTRF MERTK IC50
pIC50: −log10 of the molar value.
valueKind: pIC50

compound="CC1(C)C[C@H](N2CCN(CCO)CC2)c2ccc(-c3ccc(CO[C@H]4CCC[C@@H]4NC(=O)c4cc(-c5cccnc5F)cnc4N)cc3)cc21 [Example 159]" assayvalue="> 8.00"
compound="Cn1cc(-c2cnc(N)c(C(=O)N[C@H]3CCC[C@@H]3OCc3ccc(-c4ccc5c(c4)CC(F)(F)[C@H]5N4CCN(CCO)CC4)cc3)c2)cn1 [Example 66]" assayvalue="7.00 to 8.00"
compound="Cc1c(-c2cnc(N)c(C(=O)N[C@H]3COC[C@@H]3OCc3ccc(-c4ccc5c(c4)C(C)(C)CN5C4CCN(CCO)CC4)cc3)c2)cnn1C [Example 47]" assayvalue="> 8.00"
compound="CC(C)n1ccc2cc(-c3ccc(CO[C@H]4CCC[C@@H]4NC(=O)c4cc(-c5cnn(C)c5)cnc4N)cc3)ccc21 [Example 60]" assayvalue="> 8.00"
compound="CC1(C)CN(C2CCN(CCO)CC2)c2ccc(-c3ccc(CO[C@H]4COC[C@@H]4NC(=O)c4cc(-c5ccc(F)nc5)cnc4N)cc3)cc21 [Example 35]" assayvalue="> 8.00"
compound="CN1CCN(C2CC(C)(C)c3cc(-c4ccc(CO[C@H]5CCC[C@@H]5NC(=O)c5cc(-c6ccc(F)nc6)cnc5N)cc4)ccc32)CC1 (stereo partly drawn) [Example 94]" assayvalue="> 8.00"

* * *

Target: human TYRO3 (455-end) (Homo sapiens, UniProt Q06418)
Construct: TYRO3 (455-end); purchased SignalChem, Canada
Sequence (Q06418 455-890 limits assumed): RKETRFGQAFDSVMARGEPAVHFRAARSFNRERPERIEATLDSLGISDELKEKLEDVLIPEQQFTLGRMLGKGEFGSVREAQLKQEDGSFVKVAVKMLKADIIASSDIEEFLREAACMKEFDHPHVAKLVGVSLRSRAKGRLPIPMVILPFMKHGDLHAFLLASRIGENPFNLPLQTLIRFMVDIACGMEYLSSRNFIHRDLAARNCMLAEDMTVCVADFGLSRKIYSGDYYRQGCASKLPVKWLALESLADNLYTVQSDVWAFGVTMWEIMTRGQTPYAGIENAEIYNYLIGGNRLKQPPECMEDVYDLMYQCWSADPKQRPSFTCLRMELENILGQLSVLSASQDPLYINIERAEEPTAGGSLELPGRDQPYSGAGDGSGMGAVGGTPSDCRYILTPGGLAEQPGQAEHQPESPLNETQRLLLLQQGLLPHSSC
Assay: HTRF kinase activity biochemical assay, TYRO3
Details: 10 μM ATP, 30 minutes pre-incubation; read-out: HTRF TYRO IC50
valueKind: IC50

molecule=Cn1cc(-c2cnc(N)c(C(=O)N[C@H]3COC[C@@H]3OCc3ccc(-c4ccc5c(ccn5C)c4)cc3)c2)cn1 assayvalue="> 1 µM"
molecule="Nc1ncc(-c2ccc(F)nc2)cc1C(=O)N[C@H]1CCC[C@@H]1OCc1ccc(-c2ccc3c(c2)CCC3N2CCN(CCO)CC2)cc1 (stereo partly drawn)" assayvalue="0.1 to 1 µM"
molecule=Cn1cc(-c2cnc(N)c(C(=O)N[C@H]3CCC[C@@H]3OCc3ccc(-c4ccc5c(ccn5C5CCNCC5)c4)cc3)c2)cn1 assayvalue="0.1 to 1 µM"
